# System: LNCaP
# Method notes: Antiproliferative activity against human LNCaP cells assessed as inhibition of cell growth incubated for 72 hrs by SRB method
# Format: functional, cell-based
Assignment: determine reported pIC50 for the given compounds.
Scale note: pIC50 = -log10(concentration in M).

Exercise: Quickly give me recorded pIC50 for Cl.Cn1nccc1-c1ccc(C(=O)N[C@@H]2CNCC[C@H]2c2ccc(F)c(F)c2)c(F)c1
Solution: 6.21

Exercise: Quickly give me recorded pIC50 for NC1(C(=O)N[C@@H](CCO)c2ccc(Cl)cc2)CCN(c2nc[nH]c3nccc2-3)CC1
Solution: 6.34

====

# Tested on: 769-P
# Method notes: Antiproliferative activity against human 769-P cells assessed as inhibition of cell growth incubated for 72 hrs by SRB method
# Type: functional, cell-based
Assignment: determine reported pIC50 for the given compounds.
Scale note: pIC50 = -log10(concentration in M).

Exercise: Quickly give me recorded pIC50 for Cl.Cn1nccc1-c1ccc(C(=O)N[C@@H]2CNCC[C@H]2c2ccc(F)c(F)c2)c(F)c1
Solution: 5.11

Exercise: Quickly give me recorded pIC50 for NC1(C(=O)N[C@@H](CCO)c2ccc(Cl)cc2)CCN(c2nc[nH]c3nccc2-3)CC1
Solution: 4.97

====

Assignment: determine reported IC50 for the given molecules.
# System: SMMC-7721
# Method notes: Antiproliferative activity against human SMMC-7721 cells assessed as inhibition of cell growth incubated for 72 hrs by SRB method
# Type: functional, cell-based
# Condition description: SMMC-7721, 72 h
Report only the number, with the unit µM understood.

Exercise: Quickly give me recorded IC50 for Cl.Cn1nccc1-c1ccc(C(=O)N[C@@H]2CNCC[C@H]2c2ccc(F)c(F)c2)c(F)c1
Solution: 19.8

Exercise: Quickly give me recorded IC50 for NC1(C(=O)N[C@@H](CCO)c2ccc(Cl)cc2)CCN(c2nc[nH]c3nccc2-3)CC1
Solution: 84.1

====

# Method notes: Half life in Sprague-Dawley rat at 15 mg/kg, ig measured upto 72 hrs by LC-MS/MS analysis
# Assay type: ADME, organism-based
# Condition description: in vivo, po
Value kind: half-life (h)
Report only the number, with the unit h understood.

Exercise: Quickly give me recorded half-life for Cl.Cn1nccc1-c1ccc(C(=O)N[C@@H]2CNCC[C@H]2c2ccc(F)c(F)c2)c(F)c1
Solution: 8.68

====

# Method notes: Cmax in Beagle dog at 20 mg/kg, ig measured upto 96 hrs by LC-MS/MS analysis
# Type: ADME, organism-based, Canis lupus familiaris
# Parameters: route […], dose 20 mg/kg, time <=96
# Condition description: in vivo, po
Value kind: Cmax (ng/mL)
Report only the number, with the unit ng/mL understood.

Exercise: Quickly give me recorded Cmax for Cl.Cn1nccc1-c1ccc(C(=O)N[C@@H]2CNCC[C@H]2c2ccc(F)c(F)c2)c(F)c1
Solution: 906

====

# Target or test system: RAC-gamma serine/threonine-protein kinase (Homo sapiens)
# Sequence (Q9Y243 whole entry): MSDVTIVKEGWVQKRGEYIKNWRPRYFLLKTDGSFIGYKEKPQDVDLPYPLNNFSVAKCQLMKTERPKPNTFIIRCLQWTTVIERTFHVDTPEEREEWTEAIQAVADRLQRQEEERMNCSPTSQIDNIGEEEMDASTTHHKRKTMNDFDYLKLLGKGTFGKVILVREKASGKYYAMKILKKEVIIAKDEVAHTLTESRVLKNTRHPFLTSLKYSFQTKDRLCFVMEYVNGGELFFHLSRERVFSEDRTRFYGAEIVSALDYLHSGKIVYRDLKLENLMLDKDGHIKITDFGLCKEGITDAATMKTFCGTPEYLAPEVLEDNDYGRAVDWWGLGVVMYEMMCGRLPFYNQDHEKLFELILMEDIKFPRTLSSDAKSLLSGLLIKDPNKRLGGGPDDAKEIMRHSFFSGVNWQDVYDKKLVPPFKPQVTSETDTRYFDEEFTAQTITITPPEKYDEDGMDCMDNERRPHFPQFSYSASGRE
Value kind: IC50 (nM)
Report only the number, with the unit nM understood.

Exercise: Quickly give me recorded IC50 for Cl.Cn1nccc1-c1ccc(C(=O)N[C@@H]2CNCC[C@H]2c2ccc(F)c(F)c2)c(F)c1
Solution: 28

====

# System: HGC-27
# Method notes: Antiproliferative activity against human HGC-27 cells assessed as inhibition of cell growth incubated for 72 hrs by SRB assay
# Type: functional, cell-based
# Condition description: HGC-27, 72 h
Value kind: pIC50
Scale note: pIC50 = -log10(concentration in M).

Exercise: Tell me pIC50 of Cn1nccc1-c1cc(F)c(C(=O)N[C@@H]2CNCC[C@H]2c2ccc(F)c(F)c2)cc1F when tested on HGC-27.
Solution: 5.84

Exercise: Tell me pIC50 of Cn1nccc1-c1ccc(C(=O)N[C@@H]2CNCC[C@H]2c2cc(F)cc(F)c2)cc1F when tested on HGC-27.
Solution: 6.82

Exercise: Tell me pIC50 of Cn1ncc(Br)c1-c1cc(F)c(C(=O)N[C@@H]2CNCC[C@H]2c2ccc(F)c(F)c2)c(F)c1 when tested on HGC-27.
Solution: 5.54

Exercise: Tell me pIC50 of Cn1ncc(Cl)c1-c1cc(F)c(C(=O)N[C@@H]2CNCC[C@H]2c2ccc(F)c(F)c2)c(F)c1 when tested on HGC-27.
Solution: 5.31

Exercise: Tell me pIC50 of Cn1ncc(Br)c1-c1cc(F)c(C(=O)N[C@@H]2CNCC[C@H]2c2ccc(F)c(F)c2)c(Cl)c1 when tested on HGC-27.
Solution: 5.48

Exercise: Tell me pIC50 of O=C(N[C@@H]1CNCC[C@H]1c1ccc(F)c(F)c1)c1ccc(-c2ccn[nH]2)cc1F when tested on HGC-27.
Solution: 5.36

Exercise: Tell me pIC50 of Cn1ncc(Cl)c1-c1cc(F)c(C(=O)N[C@@H]2CNCC[C@H]2c2ccc(F)c(F)c2)c(Cl)c1 when tested on HGC-27.
Solution: 5.51

Exercise: Tell me pIC50 of Cn1nccc1-c1cc(F)c(C(=O)N[C@@H]2CNCC[C@H]2c2ccc(F)c(F)c2)c(F)c1 when tested on HGC-27.
Solution: 5.34

Exercise: Tell me pIC50 of Cn1nccc1-c1ccc(C(=O)N[C@@H]2CNCC[C@H]2c2ccc(F)c(F)c2)cc1F when tested on HGC-27.
Solution: 6.74

These entries and their values trace back to ChEMBL document CHEMBL4828735.
